READOUT_KIND: melting point

Noted for COC(=O)c1cc2c(s1)[C@@H](N1CCCCC1=O)[C@H](O)C(C)(C)O2 (relative stereo) : its melting point reads 104 to 106 °C

Noted for `NC(=O)N1C(=O)C(=C(OC(=O)c2ccco2)c2cccs2)c2cc(F)c(Cl)cc21` : its melting point reads 215 to 216 °C

Noted for `CCn1nc(-c2ccccc2)c(C(C)=O)c(Nc2cccc(Cl)c2)c1=O` : its melting point reads 189 to 191 °C

###

// melting point lookup, one value per entry

Worked set:
Noted for `CCOC(=O)c1cc2cc(OCCCOC)cc([N+](=O)[O-])c2[nH]1` : its melting point reads 94 to 95 °C

Noted for `Cc1cc(NS(=O)(=O)c2ccccc2F)cc(C)c1S(=O)(=O)C[N+](=O)[O-]` : its melting point reads 175 to 177 °C

Further cases:
Noted for `CCCc1nc2c(N)nc3ccccc3c2n1CCCC(=O)CC(C)C` : its melting point reads 136 to 138 °C

Noted for CC1SC(=O)NN=C1c1ccc2c(c1)C(=Cc1ccccn1)C(=O)N2 (configuration not stated) : its melting point reads 296 °C

Noted for `CC(C)n1nc(-c2c(-c3ccccc3)nn3ccc(OCCN4CCOCC4)cc23)ccc1=O` : its melting point reads 160 to 162 °C

Noted for `Cc1cc(C)cc(P(=O)(O)c2cc(C)cc(C)c2)c1` : its melting point reads 256 to 261 °C
